Experiment: Plasma concentrations (PK), Example 1
Assay type: in vivo, human
Conditions: human, plasma, oral, 25 mg, 25 mg QD; Week 8; Peak; read-out: Plasma concentration, Geometric Mean
ENDPOINT: level at 1344 h (ng/mL)
Entry rule: numbers only, all in ng/mL.

Prompt: Could you share which level at 1344 h value was measured for CC(=O)NCCCC[C@@H]1NC(=O)[C@H](Cc2c[nH]c3c(C)cccc23)NC(=O)[C@H]([C@@H](C)O)NC(=O)[C@H](CC(N)=O)NC(=O)[C@@H](NC(C)=O)C(C)(C)SSC(C)(C)[C@@H](C(=O)N[C@@H](Cc2ccc(OCCN)cc2)C(=O)N[C@@H](Cc2ccc3ccccc3c2)C(=O)NC2(C(=O)N[C@@H](CCC(=O)O)C(=O)N[C@@H](CC(N)=O)C(=O)N[C@@H](Cc3cccnc3)C(=O)N(C)CC(N)=O)CCOCC2)NC1=O [IL-23 receptor antagonist peptide] ?
Response: 0.284

* * *

Experiment: Plasma concentrations (PK), Example 1
Type: in vivo, human
Details: human, plasma, oral, 50 mg, 50 mg QD; Week 8; Intermediate; read-out: Plasma concentration, Mean
ENDPOINT: level at 1344 h
Please don't drop the unit; write it after the number.

Prompt: Could you share which level at 1344 h value was measured for CC(=O)NCCCC[C@@H]1NC(=O)[C@H](Cc2c[nH]c3c(C)cccc23)NC(=O)[C@H]([C@@H](C)O)NC(=O)[C@H](CC(N)=O)NC(=O)[C@@H](NC(C)=O)C(C)(C)SSC(C)(C)[C@@H](C(=O)N[C@@H](Cc2ccc(OCCN)cc2)C(=O)N[C@@H](Cc2ccc3ccccc3c2)C(=O)NC2(C(=O)N[C@@H](CCC(=O)O)C(=O)N[C@@H](CC(N)=O)C(=O)N[C@@H](Cc3cccnc3)C(=O)N(C)CC(N)=O)CCOCC2)NC1=O [IL-23 receptor antagonist peptide] ?
Response: 0.441 ng/mL

* * *

Assay: Plasma concentrations (PK), Example 1
Assay type: in vivo, human
Conditions: human, plasma, oral, 25 mg, 25 mg QD; Week 8; Intermediate; read-out: Plasma concentration, Mean
ENDPOINT: level at 1344 h (ng/mL)
Entry rule: numbers only, all in ng/mL.

Prompt: Could you share which level at 1344 h value was measured for CC(=O)NCCCC[C@@H]1NC(=O)[C@H](Cc2c[nH]c3c(C)cccc23)NC(=O)[C@H]([C@@H](C)O)NC(=O)[C@H](CC(N)=O)NC(=O)[C@@H](NC(C)=O)C(C)(C)SSC(C)(C)[C@@H](C(=O)N[C@@H](Cc2ccc(OCCN)cc2)C(=O)N[C@@H](Cc2ccc3ccccc3c2)C(=O)NC2(C(=O)N[C@@H](CCC(=O)O)C(=O)N[C@@H](CC(N)=O)C(=O)N[C@@H](Cc3cccnc3)C(=O)N(C)CC(N)=O)CCOCC2)NC1=O [IL-23 receptor antagonist peptide] ?
Response: 0.211

* * *

Experiment: Plasma concentrations (PK), Example 1
Format: in vivo, human
Conditions: human, plasma, oral, 100 mg, 100 mg QD; Week 4; Peak; read-out: Plasma concentration, Median
Description: For QD dosing, peak concentration was defined as any PK sample taken between 0.25 to <6 hours after the last morning dose and trough concentration was at least 20 hours after the last morning dose. For BID dosing, peak concentration was defined as any PK sample taken between 0.25 to <4 hours after the last dose and trough concentration was at least 8 hours after the last dose.
ENDPOINT: level at 672 h (ng/mL)
Entry rule: numbers only, all in ng/mL.

Prompt: Could you share which level at 672 h value was measured for CC(=O)NCCCC[C@@H]1NC(=O)[C@H](Cc2c[nH]c3c(C)cccc23)NC(=O)[C@H]([C@@H](C)O)NC(=O)[C@H](CC(N)=O)NC(=O)[C@@H](NC(C)=O)C(C)(C)SSC(C)(C)[C@@H](C(=O)N[C@@H](Cc2ccc(OCCN)cc2)C(=O)N[C@@H](Cc2ccc3ccccc3c2)C(=O)NC2(C(=O)N[C@@H](CCC(=O)O)C(=O)N[C@@H](CC(N)=O)C(=O)N[C@@H](Cc3cccnc3)C(=O)N(C)CC(N)=O)CCOCC2)NC1=O [IL-23 receptor antagonist peptide] ?
Response: 1.34

* * *

Experiment: Plasma concentrations (PK), Example 1
Type: in vivo, human
Details: human, plasma, oral, 100 mg, weight >90 kg, 100 mg QD, Week 12, Intermediate; read-out: Plasma concentration, Geometric Mean
ENDPOINT: level at 2016 h (ng/mL)
Entry rule: numbers only, all in ng/mL.

Prompt: Could you share which level at 2016 h value was measured for CC(=O)NCCCC[C@@H]1NC(=O)[C@H](Cc2c[nH]c3c(C)cccc23)NC(=O)[C@H]([C@@H](C)O)NC(=O)[C@H](CC(N)=O)NC(=O)[C@@H](NC(C)=O)C(C)(C)SSC(C)(C)[C@@H](C(=O)N[C@@H](Cc2ccc(OCCN)cc2)C(=O)N[C@@H](Cc2ccc3ccccc3c2)C(=O)NC2(C(=O)N[C@@H](CCC(=O)O)C(=O)N[C@@H](CC(N)=O)C(=O)N[C@@H](Cc3cccnc3)C(=O)N(C)CC(N)=O)CCOCC2)NC1=O [IL-23 receptor antagonist peptide] ?
Response: 0.75

* * *

Assay: Plasma concentrations (PK), Example 1
Type: in vivo, human
Conditions: human, plasma, oral, 100 mg, 100 mg QD; Week 8; Trough; read-out: Plasma concentration, Median
ENDPOINT: level at 1344 h (ng/mL)
Entry rule: numbers only, all in ng/mL.

Prompt: Could you share which level at 1344 h value was measured for CC(=O)NCCCC[C@@H]1NC(=O)[C@H](Cc2c[nH]c3c(C)cccc23)NC(=O)[C@H]([C@@H](C)O)NC(=O)[C@H](CC(N)=O)NC(=O)[C@@H](NC(C)=O)C(C)(C)SSC(C)(C)[C@@H](C(=O)N[C@@H](Cc2ccc(OCCN)cc2)C(=O)N[C@@H](Cc2ccc3ccccc3c2)C(=O)NC2(C(=O)N[C@@H](CCC(=O)O)C(=O)N[C@@H](CC(N)=O)C(=O)N[C@@H](Cc3cccnc3)C(=O)N(C)CC(N)=O)CCOCC2)NC1=O [IL-23 receptor antagonist peptide] ?
Response: 0.149

* * *

Experiment: Plasma concentrations (PK), Example 1
Assay type: in vivo, human
Details: human, plasma, oral, 100 mg, 100 mg QD; Week 8; Trough; read-out: Plasma concentration, Geometric Mean
Protocol: For QD dosing, peak concentration was defined as any PK sample taken between 0.25 to <6 hours after the last morning dose and trough concentration was at least 20 hours after the last morning dose. For BID dosing, peak concentration was defined as any PK sample taken between 0.25 to <4 hours after the last dose and trough concentration was at least 8 hours after the last dose.
ENDPOINT: level at 1344 h (ng/mL)
Entry rule: numbers only, all in ng/mL.

Prompt: Could you share which level at 1344 h value was measured for CC(=O)NCCCC[C@@H]1NC(=O)[C@H](Cc2c[nH]c3c(C)cccc23)NC(=O)[C@H]([C@@H](C)O)NC(=O)[C@H](CC(N)=O)NC(=O)[C@@H](NC(C)=O)C(C)(C)SSC(C)(C)[C@@H](C(=O)N[C@@H](Cc2ccc(OCCN)cc2)C(=O)N[C@@H](Cc2ccc3ccccc3c2)C(=O)NC2(C(=O)N[C@@H](CCC(=O)O)C(=O)N[C@@H](CC(N)=O)C(=O)N[C@@H](Cc3cccnc3)C(=O)N(C)CC(N)=O)CCOCC2)NC1=O [IL-23 receptor antagonist peptide] ?
Response: 0.175

* * *

Assay: Plasma concentrations (PK), Example 1
Assay type: in vivo, human
Details: human, plasma, oral, 100 mg, 100 mg QD; Week 4; Intermediate; read-out: Plasma concentration, Geometric Mean
ENDPOINT: level at 672 h (ng/mL)
Entry rule: numbers only, all in ng/mL.

Prompt: Could you share which level at 672 h value was measured for CC(=O)NCCCC[C@@H]1NC(=O)[C@H](Cc2c[nH]c3c(C)cccc23)NC(=O)[C@H]([C@@H](C)O)NC(=O)[C@H](CC(N)=O)NC(=O)[C@@H](NC(C)=O)C(C)(C)SSC(C)(C)[C@@H](C(=O)N[C@@H](Cc2ccc(OCCN)cc2)C(=O)N[C@@H](Cc2ccc3ccccc3c2)C(=O)NC2(C(=O)N[C@@H](CCC(=O)O)C(=O)N[C@@H](CC(N)=O)C(=O)N[C@@H](Cc3cccnc3)C(=O)N(C)CC(N)=O)CCOCC2)NC1=O [IL-23 receptor antagonist peptide] ?
Response: 0.683

* * *

Assay: Plasma concentrations (PK), Example 1
Type: in vivo, human
Conditions: human, plasma, oral, 100 mg, 100 mg QD; Week 8; Peak; read-out: Plasma concentration, Median
ENDPOINT: level at 1344 h (ng/mL)
Entry rule: numbers only, all in ng/mL.

Prompt: Could you share which level at 1344 h value was measured for CC(=O)NCCCC[C@@H]1NC(=O)[C@H](Cc2c[nH]c3c(C)cccc23)NC(=O)[C@H]([C@@H](C)O)NC(=O)[C@H](CC(N)=O)NC(=O)[C@@H](NC(C)=O)C(C)(C)SSC(C)(C)[C@@H](C(=O)N[C@@H](Cc2ccc(OCCN)cc2)C(=O)N[C@@H](Cc2ccc3ccccc3c2)C(=O)NC2(C(=O)N[C@@H](CCC(=O)O)C(=O)N[C@@H](CC(N)=O)C(=O)N[C@@H](Cc3cccnc3)C(=O)N(C)CC(N)=O)CCOCC2)NC1=O [IL-23 receptor antagonist peptide] ?
Response: 0.873
